All figures here come from ChEMBL document CHEMBL1949544.

- Tested on: DLD-1
- Test Name: Inhibition of proteasome activity in human DLD1 cells expressing 4-ubiquitin luciferase reporter protein assessed increase of luciferase signal at 10 uM after 7 hrs relative to control
Measurement Type: fold change (FC)

molecule=CC(=O)O[C@H]1C[C@@]2(C)[C@@H]3CC[C@H]4[C@H](C)C(=O)C=C[C@@]45C[C@@]35CC[C@]2(C)[C@H]1[C@H](C)C=O measurement_type="fold change (FC)" measured=3
molecule="C=C(C(=O)C1(O)O[C@H]2C[C@@]3(C)[C@@H]4CC[C@H]5[C@H](C)C(=O)C=C[C@@]56C[C@@]46CC[C@]3(C)[C@H]2[C@@H]1C)[C@@H](C)CO (stereo partly specified)" measurement_type="fold change (FC)" measured=2.6
molecule=C=C(C(=O)[C@H](O)[C@@H](C)[C@H]1[C@@H](OC(C)=O)C[C@@]2(C)[C@@H]3CC[C@H]4[C@](C)(C(=O)O)[C@@H](O)CC[C@@]45C[C@@]35CC[C@]12C)C(C)C measurement_type="fold change (FC)" measured=1.8
molecule="C=C1C(C)CO[C@@]12C[C@@H](C)[C@H]1[C@H](C[C@@]3(C)[C@@H]4CC[C@H]5[C@](C)(C(=O)O)[C@@H](O)CC[C@@]56C[C@@]46CC[C@]13C)O2 (stereo partly specified)" measurement_type="fold change (FC)" measured=1.3

a. C=C(C(=O)[C@H](O)[C@@H](C)[C@H]1[C@@H](OC(C)=O)C[C@@]2(C)[C@@H]3CC[C@H]4[C@H](C)C(=O)C=C[C@@]45C[C@@]35CC[C@]12C)C(C)C
b. C=C(C(=O)[C@H](OC(C)=O)[C@@H](C)[C@H]1[C@@H](OC(C)=O)C[C@@]2(C)[C@@H]3CC[C@H]4[C@H](C)C(=O)CC[C@@]45C[C@@]35CC[C@]12C)[C@@H](C)CO
Q: Given a and b , report the one with the higher recorded fold change (FC). Identify your selection by its label.
Ans: b
